study.system: LTA4H (Homo sapiens, UniProt P09960)
Sequence (P09960 whole entry): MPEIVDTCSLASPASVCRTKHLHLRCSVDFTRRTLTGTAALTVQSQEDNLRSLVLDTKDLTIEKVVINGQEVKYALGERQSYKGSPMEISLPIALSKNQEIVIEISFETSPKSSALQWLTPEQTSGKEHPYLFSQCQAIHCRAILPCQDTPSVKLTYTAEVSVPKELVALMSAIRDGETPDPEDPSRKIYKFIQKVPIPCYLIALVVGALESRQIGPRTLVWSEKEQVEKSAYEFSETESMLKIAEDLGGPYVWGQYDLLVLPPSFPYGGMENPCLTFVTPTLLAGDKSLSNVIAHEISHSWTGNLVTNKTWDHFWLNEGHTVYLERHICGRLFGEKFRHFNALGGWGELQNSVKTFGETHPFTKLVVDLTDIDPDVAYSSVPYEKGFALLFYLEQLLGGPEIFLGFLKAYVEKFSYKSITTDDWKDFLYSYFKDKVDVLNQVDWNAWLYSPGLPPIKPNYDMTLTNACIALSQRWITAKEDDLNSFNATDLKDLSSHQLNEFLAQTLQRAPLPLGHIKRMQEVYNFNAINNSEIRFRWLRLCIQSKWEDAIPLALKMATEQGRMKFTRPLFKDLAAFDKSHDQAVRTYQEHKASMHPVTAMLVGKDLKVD
assay: LTA4H aminopeptidase assay with surrogate substrate Pro-AMC
Type: biochemical
Parameters: Full-length LTA4H containing a N-terminal (His)6-tag; (His)6-tag (N, cleaved yes); (Gly3-Ser)3 spacer (N, cleaved yes); made in house; host or cells: E. coli BL21 (DE3) star
measurement.context: Table 1; read-out: IC50 Pro-AMC
value.type: log10 of IC50 (log10 of the value in nM)

{"columns": ["compound", "recorded.result"],
 "data": [
  ["Cn1cnc(-c2ccc(Oc3ccccc3)cc2)c1", 3.23],
  ["Nc1nc(-c2ccc(Cc3ccccc3)cc2)cs1 [ARM-1, 4-(4-benzylphenyl) thiazol-2-amine, reference compound]", 3.01],
  ["COc1ccc(Cc2ccccc2)cc1 [4-MDM, 4-Methoxydiphenylmethane, reference compound]", 4.53],
  ["c1ccc(Oc2ccc(-c3cc[nH]c3)cc2)cc1", 2.67],
  ["c1ccc(Cc2ccc(-c3c[nH]cn3)cc2)cc1", 2.45],
  ["Oc1cc(-c2ccc(Oc3ccccc3)cc2)n[nH]1", 3.13]
]}
